# Tested on: cholinergic responses (oxotremorine-induced tremor)
# assay.notes: Potentiation of oxotremorine-induced tremor in rats
# Type: in vivo, rat (Sprague Dawley)
# assay.context: Rattus norvegicus, ip; i.p. 30 min before oxotremorine s.c.; p<0.05; scored 5-60 min; read-out: Potentiation of OTMN tremor in rat (lowest dose causing a significant potentiation)
minimal effective dose listing for selected compounds.
Give the quantity in mg/kg, number only.

// worked examples, minimal effective dose included
CC(C)C(N)C(=O)OC(C)(C)Cc1ccc(F)cc1 (stereo not drawn) ... 20
CCCC(N)C(=O)OC(C)(C)Cc1ccc(F)cc1 (stereo not drawn) ... 10
C=CCC(N)C(=O)OC(C)(C)Cc1ccc(Cl)cc1 (stereo not drawn) ... 20
CCCC(N)C(=O)OC(C)(C)Cc1ccc(Cl)cc1 (stereo not drawn) ... 2.5

# CC(C)C(N)C(=O)OC(C)(C)Cc1cc(Cl)cc(Cl)c1 (stereo not drawn) with cholinergic responses (oxotremorine-induced tremor): minimal effective dose is 10

Record C#CCC(N)C(=O)OC(C)(C)Cc1ccc(Cl)cc1 (stereo not drawn) ; system cholinergic responses (oxotremorine-induced tremor); minimal effective dose = 10
